Known TGI of a selection of molecules
# Tested on: SW-620 colon
# ASSAY OVERVIEW: NCI tumour cell line growth inhibition, 48 h
// units = µM; emit number, no label

Here are 4 molecules together with their reported answers.
MOLECULE	RECORDED MEASUREMENT
CCC1CN2CCc3cc(OC)c(OC)cc3C2CC1CC1c2cc(OC)c(OC)cc2CCN1C(=O)C(N)Cc1ccccc1 (centres undefined)	10.9
CN(C)CCCn1c2c(c3ccccc3c1=O)C(=O)c1ccccc1-2	10.8
CCN(CC)c1sc(N(CC)CC)c2c1SSSSS2	1.14
CN(C)c1ccc(N)cc1	17.2

Would you kindly share the measured TGI for CN1CCC23c4c5ccc(Oc6nnnn6-c6ccccc6)c4OC2c2[nH]c4ccccc4c2CC3(O)C1C5 (centres undefined) ? 6.14

----------
# System: KM12 colon
# ASSAY OVERVIEW: NCI tumour cell line growth inhibition, 48 h
We begin with a simple list: items and their reported TGI.

Record excerpt, results attached:
COMPOUND	TGI
COc1ccc2c(c1)CCC1C3(CCCC21C)OCCO3 (stereo not given)	51.7 µM
Cc1nc(N)c(N2CCN(S(N)(=O)=O)CC2)c(=O)[nH]1	> 100 µM
O=[N+]([O-])/C(C(Cl)=C(Cl)Cl)=C1\Nc2ccc([N+](=O)[O-])cc2N1	> 100 µM
COc1cc2c(cc1OCCCNC(=O)c1cc3ccccc3[nH]1)N=C[C@@H]1CCCN1C2=O	1.84 µM

Returns the measured TGI for the input compound. Input: CCS(=O)(=O)c1ccc(OC)c(Nc2ncc(-c3cccc(C(C)=O)c3)o2)c1 > 25 µM

Another compound: OC1=C2c3ccccc3NC2Oc2cc(F)ccc21 (stereo not given) 31.2 µM

Next: CC1CN1CC(O)C(O)CN1CC1C (stereo not given) 23 µM

Further, for O=C(CC(O)(C(F)(F)F)C(F)(F)F)C(c1ccccc1)C(O)(C(F)(F)F)C(F)(F)F (stereo not given) ? > 100 µM

----------
TGI for assorted compounds
# System: SF-539 CNS
# ASSAY OVERVIEW: NCI tumour cell line growth inhibition, 48 h

Would you please look over these solved cases?
COMPOUND	ENDPOINT	RECORDED MEASUREMENT
Cc1ccc(N(C(=O)CC(=O)NN)C(=O)c2ccccc2Cl)cc1	TGI	> 100 µM
CCCCNC(=S)Nc1nc(C(=O)NNC(=S)NCC)cs1	TGI	> 100 µM
O=C(O)CP(=S)(S)c1ccccc1 (centres undefined)	TGI	> 100 µM
C/C(Cl)=N/OC(=O)Nc1ccc(F)c([N+](=O)[O-])c1	TGI	> 100 µM

Request - read-out TGI | tested on SF-539 CNS | compound O=C(O)CN(c1ccccc1)S(=O)(=O)c1ccccc1[N+](=O)[O-] > 100 µM

Now try O=c1[nH]c(=O)n(C/C=C/CO)nc1Br . > 100 µM

Query NC(CSS(=O)(=O)O)=NC1CC2CCC1C2 (centres undefined) next > 100 µM

Now the same for O=C1Cc2c([nH]c3ccc(Br)cc23)-c2cc(Br)ccc2N1 > 100 µM

Also COC(=O)C1=NC(=S)NC(c2ccccc2)C1c1nc2ccccc2s1 (centres undefined) , if possible. > 100 µM

And the next one, NC(CC(=O)OCc1ccccc1)C(=O)OCc1ccccc1 (centres undefined) ? > 100 µM

Would you mind doing CCc1[nH]c(=O)nc(N)c1-c1ccc(N2CCCCC2)c([N+](=O)[O-])c1 as well? > 100 µM

And what about the compound C[C@]12CCC(O)CC1=CC[C@@H]1[C@@H]2CC[C@]2(C)C(O)[C@H](n3ccnc3)C[C@@H]12 (some centres undefined) ? > 100 µM

Please give the result for COC(=O)c1cccc2cccc(C(=O)Nc3ccc(C)cc3C)c12 too. > 100 µM

Quick one: CC1=C2C(=O)O[C@@H](c3ccoc3)[C@]2(C)CCC1 > 100 µM

Please give the result for Cc1cccc(NC(=O)C(=O)Cc2nc3ccccc3[nH]c2=O)c1C too. > 100 µM

Entry to check: CSC1=N/C(=C\c2ccc(C)cc2)C(=O)N1 > 100 µM

Could you do the same for CC(=O)OC1=NN=C2COC(c3ccccc3OC(C)=O)=NN2C1 , please? > 50 µM

Note, next up: O=c1cccccc1NCCCNc1cccccc1=O > 100 µM

Param item: O=C(CP(=O)(c1ccccc1)c1ccccc1)c1cccc(C(=O)CP(=O)(c2ccccc2)c2ccccc2)c1 > 100 µM

Similarly, NC(=O)NC1NC(=O)NC1=O (centres undefined) ? > 100 µM

What about C=C(C)C1CC=C(C)C(=O)C1 (centres undefined) ? > 100 µM

Next up: O=C(O)c1cccc(Nc2c(C(=O)O)cccc2[N+](=O)[O-])c1 > 100 µM

Try OCC1OC(NC(=S)NCCC(F)(F)C(F)(F)C(F)(F)C(F)(F)C(F)(F)C(F)(F)F)C(O)C(O)C1O (centres undefined) next. > 100 µM

Do the same for Cc1nc(N)c(N2CCN(S(N)(=O)=O)CC2)c(=O)[nH]1 please > 100 µM

----------
# Tested on: SR leukemia
# ASSAY OVERVIEW: NCI tumour cell line growth inhibition, 48 h
Measured TGI by item

Sample answers from the record:
COMPOUND	TESTED ON	TGI
NC1C/C(=N\O)c2c(Cl)sc(Cl)c21 (stereo not drawn)	SR leukemia	> 100 µM
CCCCNC(=S)Nc1nc(C(=O)NNC(=S)NCC)cs1	SR leukemia	> 100 µM

The record that follows has no TGI shown yet.
What value of measured TGI is listed for NC(=O)NC1NC(=O)NC1=O (stereo not drawn) ? > 100 µM

----------
# Test system: SNB-75 CNS
# ASSAY OVERVIEW: NCI tumour cell line growth inhibition, 48 h
ENDPOINT: TGI

// known answers, use as guide
COMPOUND	RECORDED MEASUREMENT
O=c1[nH]c(=O)n(C/C=C/CO)nc1Br	> 100 µM
Cc1ccc(N(C(=O)CC(=O)NN)C(=O)c2ccccc2Cl)cc1	> 100 µM

Next item in the queue.
Value lookup for TGI; key = CCC(C)C(=O)OC1C(=O)OC2CC3C(C)=CC(=O)C(O)C3(C)C3C4(O)OCC23C1C(C)C4O (stereo not drawn) 0.113 µM

----------
# System: PC-3 prostate
# ASSAY OVERVIEW: NCI tumour cell line growth inhibition, 48 h
Measured TGI accompanies every entry in the list below.

COMPOUND	RECORDED MEASUREMENT
NCCCC[C@@H]1NC(=O)[C@H]2CCCN2C(=O)[C@H](Cc2ccccc2)NC(=O)[C@H](Cc2ccccc2)CNC1=O	> 100 µM

# get_value(readout= TGI, system= PC-3 prostate) for O=C1C2=Cc3ccccc3CCN2c2ccccc21 > 62.7 µM

Also check CC(=O)C(C(=O)c1ccc(C)cc1)[C@@H]1OC(C)(C)O[C@@H]1[C@H]1COC(C)(C)O1 (some centres not stated) > 31.9 µM

Also, O=C1NC(=O)c2ccc([N+](=O)[O-])c3cccc1c23 please. 32 µM

Consider next the compound Fc1cc(F)c(COc2cc(Cn3cnc4c(Cl)nc(Cl)nc43)ccc2C23CC4CC(CC(C4)C2)C3)cc1F in the same way. 33.8 µM

Moving on to the next compound: N=c1c2ccccc2nc2oc3cc([N+](=O)[O-])ccc3n12 > 100 µM

Next: CN(C)CCCn1c2c(c3ccccc3c1=O)C(=O)c1ccccc1-2 13.7 µM

What would you report for CCOC(=O)c1c(CN2CCN(c3ccccc3)CC2)n(-c2ccccc2)c2cc(Br)c(O)cc12 ? 13.3 µM

What about this compound? CC[C@]12C=CCN3CC[C@@]4(c5cc(Br)c(OC)c([N+](=O)[O-])c5N(C)[C@H]4[C@@](O)(C(=O)OC)[C@@H]1OC(C)=O)[C@@H]32 > 100 µM

Also need Cc1cc(S(=O)(=O)Nc2nc(N)nc(N3N=CCC3C)n2)c(SCC(=O)O)cc1Cl (configuration not stated) , thanks. > 10 µM

# iterate: O=C1c2ccccc2-c2nnc(-c3ccc([N+](=O)[O-])cc3)cc21 > 10 µM

Another compound to check: CC(C)OC(=O)c1ccc(NCC2=CC(=O)C=CC2=O)cc1 25.7 µM

Same question for NC1C/C(=N\O)c2c(Cl)sc(Cl)c21 (configuration not stated) please. 48.8 µM

Can you check COC(=O)/C(C)=N/NC(=S)SC next? > 100 µM

Item: c1ccc(C2=NNC3c4ccccc4-c4ccccc4N3C2)cc1 (configuration not stated) 65.5 µM

Now give it for NC(CC(=O)OCc1ccccc1)C(=O)OCc1ccccc1 (configuration not stated) too. > 100 µM

// same read-out, input: CC1=CC[C@H](C[C@H](C#CCCCC2OCCO2)O[Si](C(C)C)(C(C)C)C(C)C)C(=O)CC1 > 100 µM
